// provenance: patent US9346815B2

# Target under test: isolated recombinant JAK2 kinase domain (Homo sapiens (Human))
# Assay remarks: JAK2 enzyme assay (Caliper LabChip, peptide phosphorylation)
# Condition label: 25 μM ATP
Ki values for the molecules below.
Give the number; nM is assumed, so skip it.

Sample records with Ki:
> print(dat)
                                   molecule  measurement.name  value.reported
1  CN(CC1=CC(=O)OC1)C1CCN(C(=O)Cn2cc(NC(=O)c3cnn4cccnc34)c(-c3cc(Cl)ccc3OC(F)F)n2)CC1                Ki            0.75
2  CN1CC[C@@H]2[C@@H](CCN2C(=O)Cn2cc(NC(=O)c3cnn4cccnc34)c(-c3cc(Cl)ccc3OC(F)F)n2)C1 [Example 45]                Ki            1.78
3  O=C(Nc1cn(CC(=O)N2CC[C@@H]3CNCC[C@@H]32)nc1-c1cc(Cl)ccc1OC(F)F)c1cnn2cccnc12                Ki            1.21
4  O=C(O)CNC1CCN(C(=O)Cn2cc(NC(=O)c3cnn4cccnc34)c(-c3cc(Cl)ccc3OC(F)F)n2)CC1                Ki            0.55

# input for lookup
Param item = CN1CCC2CN(C(=O)Cn3cc(NC(=O)c4cnn5cccnc45)c(-c4cc(Cl)ccc4OC(F)F)n3)CC2C1 (centres unmarked) ; retrieve measured Ki.
1.69

----------
Catalogue of Ki readings, one per entry.
# Target under test: isolated recombinant JAK2 kinase domain (Homo sapiens (Human), UniProt O60674)
# Sequence (O60674 849-1124): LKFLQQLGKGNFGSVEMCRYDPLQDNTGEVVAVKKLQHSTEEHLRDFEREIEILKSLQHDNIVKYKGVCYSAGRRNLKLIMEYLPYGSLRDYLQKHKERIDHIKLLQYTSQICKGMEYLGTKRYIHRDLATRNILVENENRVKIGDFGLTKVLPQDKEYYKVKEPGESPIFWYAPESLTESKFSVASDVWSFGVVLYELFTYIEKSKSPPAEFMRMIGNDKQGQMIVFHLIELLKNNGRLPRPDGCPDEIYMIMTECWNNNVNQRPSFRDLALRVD
# Assay remarks: JAK2 enzyme assay (Caliper LabChip, peptide phosphorylation)
# Condition label: 25 μM ATP
Use nM as the unit, but write only the number.

// known answers, use as guide
> print(dat)
                                   compound  output.unit  value.reported
1  N#Cc1ccc(CN2CCN(C(=O)Cn3cc(NC(=O)c4cnn5cccnc45)c(-c4cc(Cl)ccc4OC(F)F)n3)CC2)cc1 [Example 238]           nM            0.55
2  CN1CCC(n2cc(Cn3cc(NC(=O)c4cnn5cccnc45)c(-c4cc(Cl)ccc4OC(F)F)n3)nn2)CC1 [Example 454]           nM            0.23
3  CN1CC[C@@H](n2cc(NC(=O)c3c(N)nn4cccnc34)c(-c3cc(Cl)ccc3OC(F)F)n2)C1 [Example 183]           nM            0.23
4  CN(C)C(=O)CCCN1CCC(n2cc(NC(=O)c3c(N)nn4cccnc34)c(-c3cc(Cl)ccc3OC(F)F)n2)CC1 [Example 148]           nM             0.1
5  CN(C)C[C@@H]1CCCN1C(=O)Cn1cc(NC(=O)c2c(N)nn3cccnc23)c(-c2cc(Cl)ccc2OC(F)F)n1 [Example 79]           nM            2.11
6  O=C(Nc1cn(CCN[C@H]2CCOC2)nc1-c1cc(Cl)ccc1OC(F)F)c1cnn2cccnc12 [Example 399]           nM            0.39

Which Ki reading was recorded for the compound Nc1nn2cccnc2c1C(=O)Nc1cn(CC(=O)N2CCN(CCO)CC2)nc1-c1cc(Cl)ccc1OC(F)F [Example 244] ?
0.24

# input compound: CN(CCc1ccc(Cl)cc1)C1CCN(C(=O)Cn2cc(NC(=O)c3cnn4cccnc34)c(-c3cc(Cl)ccc3OC(F)F)n2)CC1 [Example 94] ; wanted: its Ki
2.07

Find the recorded Ki belonging to Nc1nn2cccnc2c1C(=O)Nc1cn(C2CCN(CCCN3CCN(Cc4ccccc4)C3=O)CC2)nc1-c1cc(Cl)ccc1OC(F)F [Example 166] and report it.
0.26

Given the entry CN(CC(F)(F)F)C1CCN(c2nc(-c3cc(Cl)ccc3OC(F)F)c(NC(=O)c3cnn4cccnc34)s2)CC1 [Example 198] , report its measured Ki.
2.17

Using the record for CCOC(=O)CCN(C)C1CCN(C(=O)Cn2cc(NC(=O)c3cnn4cccnc34)c(-c3cc(Cl)ccc3OC(F)F)n2)CC1 [Example 391] , report its Ki.
2.49

# get_value(readout='Ki', item= CN(Cc1ccccc1)C1CCN(c2nc(-c3cc(Cl)ccc3OC(F)F)c(NC(=O)c3cnn4cccnc34)s2)CC1 [Example 201] )
3.76
